B1: POU domain, class 3, transcription factor 4, residues 280 to 335; numbered along this chain, P49335 (parent)
chain: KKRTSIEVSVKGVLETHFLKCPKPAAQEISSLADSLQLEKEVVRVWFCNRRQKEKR

# Variants of: B1
# assay_method_text: abundance fitness (aPCA) (normalised: wild type 0, dead -1); higher = more abundant; growth selection in yeast, the domain comes from the species named
# recorded_conditions: Homo sapiens
observable: abundance fitness

Hi, could you look up abundance fitness for each item in my list?
1. A33L
2. A26N
3. S9T
4. V8E
5. S35G

1: -0.598; 2: -0.043; 3: 0.008; 4: 0.623; 5: -0.638

Give me abundance fitness for each of these variants, listed below.
1. E15V
2. T16V
3. T4I
4. K20Y
5. E41Q
6. K20M
7. T4L

-0.756
-0.504
0.067
-0.788
-0.792
-0.812
-0.021

For every record below, what is its abundance fitness?
1. E7G
2. F47Y

0.381
-0.534

Lab note: each variant below needs its abundance fitness filled in.
1. S35W
2. P24H
3. A25L
4. V10Q
5. L19N

[-0.707, -0.688, -0.262, -0.193, -0.343]
